Listed below: activity coefficient values for each entry.
Test: activity coefficient (dimensionless); of the first substance listed, at infinite dilution; xn = mol fraction of the nth substance listed
Conditions: 342.45 K; Liquid; Chromatography; x1 = 0

- compound: "C#CCCCC [1-hexyne] + CCCCCCCCCCCCCC[P+](CCCCCC)(CCCCCC)CCCCCC.O=S(=O)([N-]S(=O)(=O)C(F)(F)F)C(F)(F)F"
  activity coefficient: 0.67
- compound: "C1COCCO1 [1,4-dioxane] + CCCCCCCCCCCCCC[P+](CCCCCC)(CCCCCC)CCCCCC.O=S(=O)([N-]S(=O)(=O)C(F)(F)F)C(F)(F)F"
  activity coefficient: 0.48
- compound: "ClCCl [dichloromethane] + CCCCCCCCCCCCCC[P+](CCCCCC)(CCCCCC)CCCCCC.O=S(=O)([N-]S(=O)(=O)C(F)(F)F)C(F)(F)F"
  activity coefficient: 0.27
